# TARGET_UNDER_TEST: Programmed cell death protein 1/Programmed cell death 1 ligand 1 (Homo sapiens, UniProt Q9NZQ7)
# Sequence (Q15116 whole entry): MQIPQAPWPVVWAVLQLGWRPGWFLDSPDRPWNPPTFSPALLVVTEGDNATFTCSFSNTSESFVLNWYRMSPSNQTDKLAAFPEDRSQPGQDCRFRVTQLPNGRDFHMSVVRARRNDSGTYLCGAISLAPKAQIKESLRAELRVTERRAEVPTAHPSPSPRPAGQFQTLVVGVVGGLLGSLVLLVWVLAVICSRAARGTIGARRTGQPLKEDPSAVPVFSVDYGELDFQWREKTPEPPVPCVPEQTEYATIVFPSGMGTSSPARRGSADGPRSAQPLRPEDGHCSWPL
# Sequence (Q9NZQ7 whole entry): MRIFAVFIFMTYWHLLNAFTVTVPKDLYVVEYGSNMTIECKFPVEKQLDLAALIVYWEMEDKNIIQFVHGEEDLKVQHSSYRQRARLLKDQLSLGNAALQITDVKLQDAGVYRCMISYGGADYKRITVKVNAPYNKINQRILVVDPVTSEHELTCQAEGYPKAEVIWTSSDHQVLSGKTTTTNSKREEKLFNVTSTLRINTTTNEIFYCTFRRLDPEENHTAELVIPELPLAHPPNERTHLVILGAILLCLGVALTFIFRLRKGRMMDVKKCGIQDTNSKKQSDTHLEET
# EXPERIMENTAL_DETAILS: Inhibition of human recombinant PD-1/PDL-1 interaction measured by HTRF assay
# Format: protein-complex assay
Please respond with reported pIC50 for every item in the list.
Lab note: report pIC50 as minus log10 of the concentration in molar units, number only.

## Task Reported pIC50 for "Cc1c(COc2ncnc(NCCNS(C)(=O)=O)n2)cccc1-c1ccccc1" : what is it?
## Result 6.62

## Task For "Cc1c(COc2ncnc(NCCS(N)(=O)=O)n2)cccc1-c1ccccc1" then?
## Result 6.26

## Task For "CC(=O)NCCNc1ncnc(OCc2cccc(-c3ccccc3)c2C)n1" then?
## Result 6.94

## Task For "COc1nc(NCCNC(C)=O)nc(OCc2cccc(-c3ccccc3)c2C)n1" then?
## Result 5.81

## Task For "CC(=O)NCCCNc1ncnc(OCc2cccc(-c3ccccc3)c2C)n1" then?
## Result 5.67
